experiment: Pharmacokinetic study in Sprague-Dawley rats; type: in vivo; conditions: male, Sprague-Dawley, plasma; rat, 40 mg/kg oral; read-out: AUC (as printed in text) (converted)
value.type: AUC (ng·h/mL)
Numbers only, in ng·h/mL.

{"compound": "Cc1ncc(C(=O)N[C@@H](COC(F)F)C(=O)N[C@@H](COC(F)F)C(=O)N[C@@H](Cc2ccccc2)C(=O)[C@@]2(C)CO2)s1", "unit.descriptor": "ng·h/mL", "AUC": 451}

// next item, AUC requested
Req: Supply recorded AUC for COC[C@H](NC(=O)c1cnc(C)s1)C(=O)N[C@@H](COC)C(=O)N[C@@H](Cc1ccccc1)C(=O)[C@@]1(C)CO1 [ONX-0912, reference compound] here.
Resp: 377

====

test: Pharmacokinetic study in Sprague-Dawley rats; type: in vivo; details: male, Sprague-Dawley, plasma, iv; rat, 5 mg/kg i.v.
Consider the following molecules; for each one, report its half-life.
Answers are plain numbers, in min.

Provide half-life values for the following items, in order.
1. COC[C@H](NC(=O)c1cnc(C)s1)C(=O)N[C@@H](COC)C(=O)N[C@@H](Cc1ccccc1)C(=O)[C@@]1(C)CO1 [ONX-0912, reference compound]
2. Cc1ncc(C(=O)N[C@@H](COC(F)F)C(=O)N[C@@H](COC(F)F)C(=O)N[C@@H](Cc2ccccc2)C(=O)[C@@]2(C)CO2)s1

Resp:
10
68

====

assay: Pharmacokinetic study in NOD/SCID mice; format: in vivo; details: plasma, po, mouse, 25 mg/kg p.o.
value.type: AUC

{"compound": "COC[C@H](NC(=O)c1cnc(C)s1)C(=O)N[C@@H](COC)C(=O)N[C@@H](Cc1ccccc1)C(=O)[C@@]1(C)CO1 [ONX-0912, reference compound]", "AUC": "8.55 ng·h/mL"}

Req: Supply recorded AUC for Cc1ncc(C(=O)N[C@@H](COC(F)F)C(=O)N[C@@H](COC(F)F)C(=O)N[C@@H](Cc2ccccc2)C(=O)[C@@]2(C)CO2)s1 here.
Resp: 51.9 ng·h/mL

====

assay: Pharmacokinetic study in Sprague-Dawley rats; assay type: in vivo; conditions: male, Sprague-Dawley, plasma, iv; rat, 5 mg/kg i.v.
value.type: Vd (L/kg)
Numbers only, in L/kg.

{"molecule": "COC[C@H](NC(=O)c1cnc(C)s1)C(=O)N[C@@H](COC)C(=O)N[C@@H](Cc1ccccc1)C(=O)[C@@]1(C)CO1 [ONX-0912, reference compound]", "unit.descriptor": "L/kg", "Vd": 4}

// next item, Vd requested
Req: Supply recorded Vd for Cc1ncc(C(=O)N[C@@H](COC(F)F)C(=O)N[C@@H](COC(F)F)C(=O)N[C@@H](Cc2ccccc2)C(=O)[C@@]2(C)CO2)s1 [FV-162] here.
Resp: 20

====

Consider the following compounds; for each one, report its half-life.
Assay: Pharmacokinetic study in NOD/SCID mice
Assay type: in vivo
Settings: plasma, iv, mouse, 5 mg/kg i.v.
Protocol: NOD/SCID mice were administered FV-162 or ONX-0912 at doses of 5 mg/kg intravenously or 25 mg/kg by oral gavage in a 12.5% ethanol, 12.5% Tween-80 vehicle (3 mice per group). Venous blood samples (20–50 μl) were collected at 5, 15, 30 min, and 1, 2, and 4 h postdose. Plasma was separated from whole blood by centrifugation and stored at −20 °C until analysis. […] Venous blood samples (20–50 μl) were collected at 5, 10, 30, and 60 min postdose. […]
One number for each entry, in min.

{"compound": "COC[C@H](NC(=O)c1cnc(C)s1)C(=O)N[C@@H](COC)C(=O)N[C@@H](Cc1ccccc1)C(=O)[C@@]1(C)CO1 [ONX-0912, reference compound]", "half-life (min)": 22}

// next item, half-life requested
Req: Supply recorded half-life for Cc1ncc(C(=O)N[C@@H](COC(F)F)C(=O)N[C@@H](COC(F)F)C(=O)N[C@@H](Cc2ccccc2)C(=O)[C@@]2(C)CO2)s1 here.
Resp: 95
